- Tested on: SR leukemia
- test method notes: NCI tumour cell line growth inhibition, 48 h; in the data active means GI50 below about 0.43 µM; inactive means the rest
Please answer using one outcome listed in active, inactive

### Prompt What call does the record list for C=C1C[C@@H]2C/C=C/C(=O)C/C(C)=C\C=C\C(=O)O[C@H](C=O)C/C(C)=C/[C@H](C1)O2 ?
### Response inactive

### Prompt What call does the record list for COC(=O)COc1ccc(/C=C2\N=C(c3ccccc3)N(c3cc(C(F)(F)F)ccc3Cl)C2=O)cc1 ?
### Response inactive

### Prompt What call does the record list for COc1ccc2c(c1)nc(N)c1c3cc(OC)c(OC)cc3cn21 ?
### Response active

### Prompt What call does the record list for NCCCC(=O)Nc1ccncc1 ?
### Response inactive

### Prompt What call does the record list for CCC1=C[C@@H]2CN(C1)Cc1c([nH]c3ccccc13)[C@@](C(=O)OC)(c1cc3c(cc1OC)N(C=O)[C@H]1[C@@](O)(C(=O)OC)[C@H](OC(C)=O)[C@]4(CC)[C@@H]5C[C@@H]5CN5CC[C@]31[C@@H]54)C2 ?
### Response active

### Prompt What call does the record list for Nc1nc(Nc2ccc3c(c2)CC[C@@H](N2CCCC2)CC3)nn1-c1cc2c(nn1)-c1ccccc1CCC2 ?
### Response inactive

### Prompt What call does the record list for C[C@@H]1O[C@@H](O[C@@H]2[C@@H](O)[C@H](OCCc3ccc(O)c(O)c3)O[C@H](COC(=O)/C=C/c3ccc(O)c(O)c3)[C@H]2O)[C@H](O)[C@H](O)[C@H]1O ?
### Response inactive

### Prompt What call does the record list for CCN1C(=O)N(CC)C2C1NN=c1s/c(=C3\C(=O)N(CC(C)C)c4ccccc43)c(=O)n12 (centres undefined) ?
### Response inactive

### Prompt What call does the record list for COc1ccc(C2=NN(C(=O)COc3ccc(Cl)cc3)C(O)(c3cc(F)c(Cl)cc3Cl)C2)cc1OC (centres undefined) ?
### Response inactive

----------
- Test system: M19-MEL melanoma
- test method notes: NCI tumour cell line growth inhibition, 48 h
Please respond with reported TGI for every item in the list.

### Prompt Recorded TGI for C=CC[C@H]1C[C@@]2(C)OC[C@H](C(C)C)N2C1=O , please?
### Response > 100 µM

### Prompt Recorded TGI for O=C(Nc1ccc(Cl)cc1)c1cccc([N+](=O)[O-])c1O , please?
### Response 9.07 µM

### Prompt Recorded TGI for O=C(O)c1c2c(c(C(=O)O)c3ccccc13)-c1ccccc1-2 , please?
### Response > 100 µM

### Prompt Recorded TGI for OCC(O)C(O)C(O)C1SC(c2ccccc2)=NN1c1ccccc1 (configuration not stated) , please?
### Response > 100 µM

### Prompt Recorded TGI for Cn1nc(-c2ccccc2)c(N=[N+]=[N-])cc1=O , please?
### Response > 100 µM

### Prompt Recorded TGI for N#CCc1ccc(C(C#N)/C(CCCC(=O)Nc2cccc([N+](=O)[O-])c2)=N\NC(=O)NN)cc1 (configuration not stated) , please?
### Response > 100 µM

### Prompt Recorded TGI for NCCCN(CCCN)CCCNCc1c2ccccc2c(CNCCCN(CCCN)CCCN)c2ccccc12 , please?
### Response 20.4 µM

### Prompt Recorded TGI for CCCCCCCCCCC(C)CCCCCCC(=O)OCC(COP(=O)([O-])OCC[N+](C)(C)C)OC(=O)CCCCCCC(C)CCCCCCCCCC (configuration not stated) , please?
### Response > 100 µM

### Prompt Recorded TGI for Cc1cccc(C)c1NC(=O)/C(Cl)=C(/Cl)C(=O)O , please?
### Response 43.7 µM

### Prompt Recorded TGI for N/N=C(\CC1OC(=O)c2ccccc21)c1ccco1 (configuration not stated) , please?
### Response > 100 µM

### Prompt Recorded TGI for CCOC(=O)/C(=C\c1ccc(OCc2ccccc2)c(OC)c1)C(=O)c1ccccc1 , please?
### Response 50 µM

### Prompt Recorded TGI for c1nc2cscc2c2cscc12 , please?
### Response > 100 µM

----------
- System: MALME-3M melanoma
- test method notes: NCI tumour cell line growth inhibition, 48 h; in the data active means GI50 below about 0.43 µM; inactive means the rest
Please answer using one outcome listed in Y for active, N for inactive

### Prompt What call does the record list for COc1cc(NC(=O)c2cc(OC)c3ccn(C)c3c2)cc2c1C[C@]1(C)CC[C@@H](O)C(C)(C)[C@H]1O2 ?
### Response N

### Prompt What call does the record list for COc1ccc2c(c1)nc(N)c1c3cc(OC)c(OC)cc3cn21 ?
### Response N

### Prompt What call does the record list for CCN(CC)CCOc1ccc(Nc2ncc3cc(-c4ccc(O)cc4)c(=O)n(C)c3n2)cc1 ?
### Response N

### Prompt What call does the record list for N=C1c2nc3n(c2C(=O)c2nc4n(c21)CCCC4)CCCC3 ?
### Response N

### Prompt What call does the record list for COc1ccc(CNc2nc3cc(N)cc(N)c3nc2-c2ccccc2)cc1OC ?
### Response N

### Prompt What call does the record list for COc1cc(Cl)cc(-c2nn(C(=O)NCCN3CCN(C)CC3)cc2-c2ccncc2)c1 ?
### Response N

### Prompt What call does the record list for O=[N+]([O-])c1ccc(-c2nc(N(CCO)CCO)c3ccccc3n2)o1 ?
### Response Y

### Prompt What call does the record list for Cn1ccc2c(NCCN)c3c(c(NCCN)c21)C(=O)c1ccccc1C3=O ?
### Response N

### Prompt What call does the record list for COC(=O)NC/C=C\c1nc(CC/C=C\C(=O)OC2CC3CC(=O)O[C@H](/C=C/CC(C)C)C[C@H]4CCC(C)C(C[C@H](OC)CC(C2)O3)O4)co1 (stereo not given in full) ?
### Response N

### Prompt What call does the record list for CN(NC(=O)CC(=O)NN(C)C(=S)c1ccccc1)C(=S)c1ccccc1 ?
### Response N

----------
Please respond with reported TGI for every item in the list.
- Tested on: DU-145 prostate
- test method notes: NCI tumour cell line growth inhibition, 48 h
The answer is to be given in µM; state only the numeric part.

### Prompt Recorded TGI for C=C1C(=O)O[C@@H]2C1C[C@@H](O)/C(C)=C/C/C=C(\C)CCC[C@H](C)[C@H]2OC(C)=O (some centres not stated) , please?
### Response 45.4

### Prompt Recorded TGI for CCCc1ccc(S(=O)(=O)N[C@H]2CC[C@H]3[C@@H]4CCc5cc(O)ccc5[C@H]4CC[C@]23C)cc1 , please?
### Response 14

### Prompt Recorded TGI for CC([C@H]1CCC2C3CCC4C[C@@H](NC=O)CC[C@]4(C)C3CC[C@@]21C)N(C)C (some centres not stated) , please?
### Response 17.5

----------
- Test system: OVCAR-4 ovarian
- test method notes: NCI tumour cell line growth inhibition, 48 h
quantity name: GI50

### Prompt Recorded GI50 for O=C(NC1CC1)c1ccc(-c2nc3ccc4[nH]ncc4c3c3c2CCCC3)cc1 , please?
### Response 4.62 µM

### Prompt Recorded GI50 for CC([C@H]1CCC2C3CCC4C[C@@H](NC=O)CC[C@]4(C)C3CC[C@@]21C)N(C)C (some centres undefined) , please?
### Response 4.72 µM

### Prompt Recorded GI50 for CCCCCNC(=O)[C@@H]1CCCN2C(=O)CC[C@H](NC(=O)[C@H](Cc3ccc(OP(=O)(O)O)cc3)NC(C)=O)C(=O)N12 , please?
### Response > 25 µM

### Prompt Recorded GI50 for CCOC(=O)Cc1csc(/N=C2\NC(=O)/C(=C3\C(=O)N(C)c4ccccc43)S2)n1 , please?
### Response 35.2 µM

### Prompt Recorded GI50 for CN(NC(=O)CC(=O)NN(C)C(=S)c1ccccc1)C(=S)c1ccccc1 , please?
### Response > 71.2 µM

### Prompt Recorded GI50 for Cn1ccc2c(NCCN)c3c(c(NCCN)c21)C(=O)c1ccccc1C3=O , please?
### Response 9.46 µM

### Prompt Recorded GI50 for O=C(Nc1ccc(-n2cc(-c3ccncc3)c(-c3ccc(O)c(Cl)c3)n2)cc1)c1cc(Cl)cc(Cl)c1 , please?
### Response 2.56 µM

### Prompt Recorded GI50 for CCOC(=O)CCCn1c(SC)nc2cc(-c3ccco3)[nH]c2c1=O , please?
### Response > 100 µM

### Prompt Recorded GI50 for Nc1ccc(C(=O)c2ccc(N)c(Br)c2)cc1Br , please?
### Response 6.24 µM

----------
- Tested on: SK-MEL-2 melanoma
- test method notes: NCI tumour cell line growth inhibition, 48 h
quantity name: TGI

### Prompt Recorded TGI for Fc1ccc(Oc2nccc(-c3c(-c4ccc(F)cc4)ncn3C3CCNCC3)n2)cc1 , please?
### Response > 25 µM

### Prompt Recorded TGI for O=c1[nH]c2nccnc2c2c([N+](=O)[O-])cccc12 , please?
### Response > 100 µM

### Prompt Recorded TGI for CC1(C)OC[C@@H]([C@@]2(CO[Si](C)(C)C(C)(C)C)CC=CC(=O)O2)O1 , please?
### Response > 100 µM

### Prompt Recorded TGI for O=C(O)c1c2c(c(C(=O)O)c3ccccc13)-c1ccccc1-2 , please?
### Response 97.1 µM

### Prompt Recorded TGI for CSc1nc2c(c(=O)n1C)N=C(c1ccc(Cl)cc1)CC(c1ccccc1)N2 (stereo not given) , please?
### Response 29.5 µM

### Prompt Recorded TGI for O=c1[nH]c(=S)c2cc3c(=S)[nH]c(=O)n(CCC(c4ccccc4)(c4ccccc4)c4ccccc4)c3nc2n1CCC(c1ccccc1)(c1ccccc1)c1ccccc1 , please?
### Response > 100 µM

### Prompt Recorded TGI for C1CNCCNCCNCCN1 , please?
### Response > 100 µM

### Prompt Recorded TGI for CC(/C=N/N(C)C1=NCCCCN1)=N/N(C)C1=NCCCCN1 , please?
### Response > 100 µM

### Prompt Recorded TGI for CC1(CO)OC1COCc1ccccc1 (stereo not given) , please?
### Response > 100 µM

### Prompt Recorded TGI for N/N=C(\CC1OC(=O)c2ccccc21)c1ccco1 (stereo not given) , please?
### Response > 100 µM

This collection of values is drawn from PubChem BioAssay (NCI).
